# systemTested: GR (Homo sapiens)
# assayOverview: Multi-promoter fluorescent protein reporter compound screen for GR modulators
# Assay type: cell-based
# Parameters: endogenous in cells; host or cells: A549
# experimentalParameters: A549 cells, library compounds 2.5 μM with dex 100 nM; reporter fluorescence relative to plate mean
measurementLabel: GILZ-YFP

smilesNotation	endpointValue
CS(=O)(=O)c1ccc([C@@H](O)[C@@H](CO)NC(=O)C(Cl)Cl)cc1	No effect
O=C1C=CC(=C(c2ccc(O)cc2)c2ccc(O)cc2)C=C1	No effect

----------
# systemTested: UniProt P04150
# assayOverview: Luciferase assays, GR-responsive reporters, A549 cells
# Assay type: cell-based
# Parameters: endogenous in cells; host or cells: A549
# experimentalParameters: A549 cells, pENaC-luc and pSV40-rl, with dex
measurementLabel: GR activity (GR-mediated induction of pENaC-luc reporter)

compound	endpointValue
O=C1c2c(O)ccc(O)c2C(=O)c2c(NCCNCCO)ccc(NCCNCCO)c21 [Mitoxantrone]	antagonists of GR
CC[C@@]1(O)C[C@H](O[C@H]2C[C@H](N(C)C)[C@H](O[C@H]3C[C@H](O)[C@H](O[C@H]4CCC(=O)[C@H](C)O4)[C@H](C)O3)[C@H](C)O2)c2c(cc3c(c2O)C(=O)c2c(O)cccc2C3=O)[C@H]1C(=O)OC [Aclacinomycin]	antagonists of GR

----------
# systemTested: GR (Homo sapiens)
# Sequence (P04150 1-777): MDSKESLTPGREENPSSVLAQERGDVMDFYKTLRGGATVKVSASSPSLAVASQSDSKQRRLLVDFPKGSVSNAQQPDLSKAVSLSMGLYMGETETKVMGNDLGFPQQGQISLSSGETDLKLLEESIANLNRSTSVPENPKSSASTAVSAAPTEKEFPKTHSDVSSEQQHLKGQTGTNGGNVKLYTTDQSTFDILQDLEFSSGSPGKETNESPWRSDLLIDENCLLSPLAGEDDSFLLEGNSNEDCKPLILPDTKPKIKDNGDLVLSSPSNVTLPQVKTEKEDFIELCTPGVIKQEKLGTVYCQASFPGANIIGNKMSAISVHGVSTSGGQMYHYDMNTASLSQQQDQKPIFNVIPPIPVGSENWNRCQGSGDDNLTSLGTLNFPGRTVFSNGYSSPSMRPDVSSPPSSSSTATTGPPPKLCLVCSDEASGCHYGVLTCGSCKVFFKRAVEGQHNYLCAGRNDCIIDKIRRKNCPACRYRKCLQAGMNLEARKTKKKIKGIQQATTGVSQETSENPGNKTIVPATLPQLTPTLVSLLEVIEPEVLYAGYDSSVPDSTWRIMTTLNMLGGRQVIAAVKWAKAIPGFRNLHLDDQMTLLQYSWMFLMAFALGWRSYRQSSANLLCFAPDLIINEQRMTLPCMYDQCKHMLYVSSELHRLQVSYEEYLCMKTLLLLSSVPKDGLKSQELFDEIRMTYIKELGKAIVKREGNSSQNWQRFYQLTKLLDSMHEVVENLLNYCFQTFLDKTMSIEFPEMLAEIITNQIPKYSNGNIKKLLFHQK
# assayOverview: Luciferase assays, GR-responsive reporters, A549 cells
# Type: cell-based
# Set-up: endogenous in cells; host or cells: A549
# experimentalParameters: whether the drug acted dose-dependently on GR-luciferase reporters
measurementLabel: Dose dependent

molecule	endpointValue
O=C1c2c(O)ccc(O)c2C(=O)c2c(NCCNCCO)ccc(NCCNCCO)c21 [Mitoxantrone]	yes
C[N+]1(C)CCCC(OC(=O)C(O)(c2ccccc2)c2ccccc2)C1 (stereo not shown) [Mepenzolate]	no
O=c1oc2c(O)c(O)cc3c(=O)oc4c(O)c(O)cc1c4c23 [Ellagic Acid]	no
CCCCCC(=O)O[C@]1(C(C)=O)CC[C@H]2[C@@H]3CCC4=CC(=O)CC[C@]4(C)[C@H]3CC[C@@]21C [Hpg. caproate, Hydroxyprogesterone caproate]	yes
